Assay: soluble on expression in E. coli; label from the status in PepcDB or PDB records

SEQUENCE ENTRY: GPGSMGSGCSTESSTDVRCSFVGLMDEKKESWRGRLLGDIGKDPTGVTRDFPRTQVYVAAPNRNNYYREKQDHVSVLVLKDKEDESKYFSDRNERVRESLELLVELCGEDSSVIKSEWEKQQKDIPDSSSLLMTVLLESGMMRATEANTENGGAGGETDAVTNIQNGGGGYAPKYTVHSKALRLMQYMVQSVAFFSTQHVTDALRFSWCKHMQDVSWAVYVYTEGGACGKERNSSDEILVLRHMHTLRHYVGQSERSTHPRFEVDWACTFHIDLKRLLDANNTAAKEATFAPEGEVQRIDGELLAARIESPNRKLCRITSTWKKRRSELEGRLMECFGVELTKVDVLDENGPLSALNSGG
soluble on expression in E. coli: not soluble

SEQUENCE ENTRY: MGSDKIHHHHHHMIRKNHKPAFCDENPIDCHFDVKSYPAGTTVHNNDTNIIYLIFCMKGHARITSTFFHDEILCAGEVMFVPHGSEYSGVALSDVTLLVHKFNNTVCRAENCILSYLYSHKNIDSKIYCCQRRT
soluble on expression in E. coli: not soluble
